# STUDY TARGET: Human fibrinogen receptor IIb/IIIa (Homo sapiens, UniProt P05106+P08514)
# Construct: Human fibrinogen receptor ([…]) was purified from outdated platelets
# RUN DESCRIPTION: Purified IIb/IIIa receptor assay: solid phase receptor assay, competition with biotinylated vitronectin
# CONDITION INFO: 1 nM biotinylated vitronectin
Counter-ions that a name gives are not always drawn.
QUANTITY KIND: IC50 (nM)

compound="O=C(O)C[C@@H](NC(=O)CNC(=O)c1c[nH]c(=O)c(NC2=NCC(O)CN2)c1)c1cc(Cl)cc(Cl)c1O (some centres unmarked) [Example 41]" recorded_result=35400
compound="O=C(O)C[C@H](NC(=O)CNC(=O)c1sccc1CNC1=NCC(O)CN1)c1cc(Cl)cc(Cl)c1O (some centres unmarked) [Example 45]" recorded_result=1680
compound="Nc1ncc(C(=O)NCC(=O)NC(CC(=O)O)c2cc(Cl)cc(Cl)c2O)cc1NC1=NCC(O)CN1 (centres unmarked) [Example 44]" recorded_result=1060
compound="O=C(O)C[C@H](NC(=O)CNC(=O)c1c[nH]c(=O)c(NC2=NCC(O)CN2)c1)c1cc(Br)cc(Cl)c1O (some centres unmarked) [Example 34]" recorded_result=1200
compound="O=C(O)C[C@H](NC(=O)CNC(=O)c1cc(=O)cc(NC2=NCC(O)CN2)[nH]1)c1cc(Cl)cc(Br)c1O (some centres unmarked) [Example 31]" recorded_result=1800
compound="Cc1sc(C(=O)NCC(=O)N[C@@H](CC(=O)O)c2cc(Cl)cc(Cl)c2O)cc1NC1=NCC(O)CN1 (some centres unmarked) [Example 14, trifluoroacetate salt]" recorded_result=772
compound="O=C(O)C[C@H](NC(=O)CNC(=O)c1cncc(N=C2NCC(O)CN2)c1)c1cc(Cl)cc(Br)c1O (some centres unmarked) [Example 9]" recorded_result=244
compound="N=C(N)Nc1nc(C(=O)NCC(=O)NC(CC(=O)O)c2cccnc2)cs1 (centres unmarked) [Example 8]" recorded_result=857

* * *

# STUDY TARGET: Human vitronectin receptor (αvβ3) (Homo sapiens, UniProt P05106+P06756)
# Construct: Human vitronectin receptor (αvβ3) was purified from human placenta
# RUN DESCRIPTION: Vitronectin adhesion assay: solid phase receptor assay, competition with biotinylated vitronectin
# CONDITION INFO: purified human vitronectin receptor; 1 nM biotinylated vitronectin
pIC50: −log10 of the molar value. Where a name gives a salt, the structure may show the parent alone.
// label = 1 if pIC50 is not less than 9, otherwise 0

molecule="O=C(O)C[C@H](NC(=O)CNC(=O)c1sccc1CNC1=NCC(O)CN1)c1cc(Cl)cc(Cl)c1O (stereo partly shown)" cat=0
molecule="O=C(O)C[C@H](NC(=O)CNC(=O)c1c[nH]c(=O)c(NC2=NCC(O)CN2)c1)c1cc(Br)cc(Cl)c1O (stereo partly shown)" cat=1
molecule="O=C(O)C[C@H](NC(=O)CNC(=O)c1c[nH]c(=O)c(NC2=NCC(O)CN2)c1)c1cc(Br)cc(Br)c1 (stereo partly shown)" cat=1
molecule="O=C(O)C[C@H](NC(=O)CNC(=O)c1cc(=O)cc(NC2=NCC(O)CN2)[nH]1)c1cc(Cl)cc(Br)c1O (stereo partly shown)" cat=0
molecule="O=C(O)CC(NC(=O)CNC(=O)c1cc(N=C2NCCN2)c[nH]c1=O)c1cc(Cl)cc(Cl)c1O (stereo not shown) [Example 23, (trifluoroacetate) salt]" cat=0
molecule="O=C(O)CC(NC(=O)CNC(=O)c1cnc(Cl)c(NC2=NCCN2)c1)c1cc(Cl)cc(Cl)c1O (stereo not shown) [Example 19, (trifluoroacetate) salt, monohydrate]" cat=0
molecule="O=C(O)CC(NC(=O)CNC(=O)c1cncc(NC2=NCCCN2)c1)c1cc(Cl)cc(Cl)c1O (stereo not shown)" cat=1
molecule="O=C(O)C[C@H](NC(=O)CNC(=O)c1cncc(N=C2NCC(O)CN2)c1)c1cc(Cl)cc(Cl)c1O (stereo partly shown)" cat=1
molecule="O=C(O)CC(NC(=O)CNC(=O)c1cncc(NC2=NCCN2)c1)c1cc(Cl)cc(Cl)c1O (stereo not shown)" cat=1
molecule="COc1ncc(N=C2NCCN2)cc1C(=O)NCC(=O)NC(CC(=O)O)c1cc(Cl)cc(Cl)c1O (stereo not shown) [Example 22, (trifluoroacetate) salt]" cat=0
molecule="O=C(O)C[C@H](NC(=O)CNC(=O)c1csc(NC2=NCC(O)CN2)c1)c1cc(Cl)cc(Cl)c1O (stereo partly shown)" cat=0
molecule="O=C(O)C[C@@H](NC(=O)CNC(=O)c1c[nH]c(=O)c(NC2=NCC(O)CN2)c1)c1cc(Cl)cc(Cl)c1O (stereo partly shown)" cat=0
molecule="O=C(O)CC(NC(=O)CNC(=O)c1cncc(NC2=NCC(O)CN2)c1)c1cc(Cl)cc(Br)c1O (stereo not shown)" cat=0
molecule="O=C(O)C[C@H](NC(=O)CNC(=O)c1cscc1CNC1=NCC(O)CN1)c1cc(Cl)cc(Cl)c1O (stereo partly shown)" cat=0
molecule="O=C(O)C[C@H](NC(=O)CNC(=O)c1c[nH]c(=O)c(NC2=NCC(O)CN2)c1)c1cc(Cl)cc(Cl)c1O (stereo partly shown) [Example 21, trifluoroacetate salt]" cat=1
molecule="COc1ncc(C(=O)NCC(=O)N[C@@H](CC(=O)O)c2cc(Cl)cc(Cl)c2O)cc1NC1=NCC(O)CN1 (stereo partly shown)" cat=1
molecule="O=C(O)CC(NC(=O)CNC(=O)c1cncc(NC2=NCCN2)c1)c1cc(Cl)cc(I)c1O (stereo not shown)" cat=1
molecule="O=C(O)C[C@H](NC(=O)CNC(=O)c1cc(NC2=NCC(O)CN2)cs1)c1cc(Cl)cc(Cl)c1O (stereo partly shown) [Example 12, trifluoroacetate salt]" cat=0
molecule="Nc1ncc(C(=O)NCC(=O)NC(CC(=O)O)c2cc(Cl)cc(Cl)c2O)cc1NC1=NCC(O)CN1 (stereo not shown)" cat=0

* * *

# STUDY TARGET: Human vitronectin receptor (αvβ3) (Homo sapiens, UniProt P05106+P06756)
# Construct: Human vitronectin receptor (αvβ3) was purified from human placenta
# RUN DESCRIPTION: Vitronectin adhesion assay: solid phase receptor assay, competition with biotinylated vitronectin
# CONDITION INFO: purified human vitronectin receptor; 1 nM biotinylated vitronectin
QUANTITY KIND: IC50

compound=O=C(O)C[C@H](NC(=O)CNC(=O)c1c[nH]c(=O)c(NC2=NCCN2)c1)c1cc(Br)cc(Br)c1O recorded_result="1.13 nM"
compound=CC1(C)CN=C(Nc2cc(C(=O)NCC(=O)N[C@@H](CC(=O)O)c3cc(Cl)cc(Cl)c3O)c[nH]c2=O)NC1 recorded_result="0.99 nM"
compound="N=C(N)Nc1cncc(C(=O)NCC(=O)NC(CC(=O)O)c2cc(Cl)cc(Cl)c2O)c1 (stereo not drawn)" recorded_result="1.32 nM"
